Provenance of the data: BindingDB's records for doi:10.1016/j.bmc.2018.03.025

- Measurement protocol: Inhibition of EGFR L858R mutant (unknown origin) using poly (Glu, Tyr) as substrate after 40 mins by kinase-glo plus luminescence assay
pIC50: −log10 of the molar value.
Measurement label: pIC50

# example entries with known answers
CN(C)CCOc1ccc(Nc2ncc3nc(Sc4ccc(F)cc4)n(C4CCOCC4)c3n2)cc1
8.92
CN(C)CCOc1ccc(Nc2ncc3nc([S+]([O-])c4ccccc4)n(C4CCOCC4)c3n2)cc1 (centres undefined)
8.59
CN(C)CCOc1ccc(Nc2ncc3nc(Sc4ccccc4)n(C4CCOCC4)c3n2)cc1
8.77
CN1CCN(c2ccc(Nc3ncc4nc(Sc5ccccc5)n(C5CCOCC5)c4n3)cc2)CC1
8.70
CN(C)C1CCN(c2ccc(Nc3ncc4nc(Sc5ccccc5)n(C5CCOCC5)c4n3)cc2)CC1
8.72

(a) CN1CCN(c2ccc(Nc3ncc4nc(Sc5ccccc5)n(C5CCCC5)c4n3)cc2)CC1
(b) CN1CCN(c2ccc(Nc3ncc4nc(Sc5ccccc5)n([C@H]5CC[C@H](O)CC5)c4n3)cc2)CC1
Select the item whose pIC50 value is smaller, choosing between a and b . # reply format: chosen label a
